Data provenance is patent US20250270209A1.

# SYSTEM: wild type LRRK2 overexpressed in recombinant HEK-293T cells (Homo sapiens, UniProt Q5S007)
# Sequence (Q5S007 whole entry): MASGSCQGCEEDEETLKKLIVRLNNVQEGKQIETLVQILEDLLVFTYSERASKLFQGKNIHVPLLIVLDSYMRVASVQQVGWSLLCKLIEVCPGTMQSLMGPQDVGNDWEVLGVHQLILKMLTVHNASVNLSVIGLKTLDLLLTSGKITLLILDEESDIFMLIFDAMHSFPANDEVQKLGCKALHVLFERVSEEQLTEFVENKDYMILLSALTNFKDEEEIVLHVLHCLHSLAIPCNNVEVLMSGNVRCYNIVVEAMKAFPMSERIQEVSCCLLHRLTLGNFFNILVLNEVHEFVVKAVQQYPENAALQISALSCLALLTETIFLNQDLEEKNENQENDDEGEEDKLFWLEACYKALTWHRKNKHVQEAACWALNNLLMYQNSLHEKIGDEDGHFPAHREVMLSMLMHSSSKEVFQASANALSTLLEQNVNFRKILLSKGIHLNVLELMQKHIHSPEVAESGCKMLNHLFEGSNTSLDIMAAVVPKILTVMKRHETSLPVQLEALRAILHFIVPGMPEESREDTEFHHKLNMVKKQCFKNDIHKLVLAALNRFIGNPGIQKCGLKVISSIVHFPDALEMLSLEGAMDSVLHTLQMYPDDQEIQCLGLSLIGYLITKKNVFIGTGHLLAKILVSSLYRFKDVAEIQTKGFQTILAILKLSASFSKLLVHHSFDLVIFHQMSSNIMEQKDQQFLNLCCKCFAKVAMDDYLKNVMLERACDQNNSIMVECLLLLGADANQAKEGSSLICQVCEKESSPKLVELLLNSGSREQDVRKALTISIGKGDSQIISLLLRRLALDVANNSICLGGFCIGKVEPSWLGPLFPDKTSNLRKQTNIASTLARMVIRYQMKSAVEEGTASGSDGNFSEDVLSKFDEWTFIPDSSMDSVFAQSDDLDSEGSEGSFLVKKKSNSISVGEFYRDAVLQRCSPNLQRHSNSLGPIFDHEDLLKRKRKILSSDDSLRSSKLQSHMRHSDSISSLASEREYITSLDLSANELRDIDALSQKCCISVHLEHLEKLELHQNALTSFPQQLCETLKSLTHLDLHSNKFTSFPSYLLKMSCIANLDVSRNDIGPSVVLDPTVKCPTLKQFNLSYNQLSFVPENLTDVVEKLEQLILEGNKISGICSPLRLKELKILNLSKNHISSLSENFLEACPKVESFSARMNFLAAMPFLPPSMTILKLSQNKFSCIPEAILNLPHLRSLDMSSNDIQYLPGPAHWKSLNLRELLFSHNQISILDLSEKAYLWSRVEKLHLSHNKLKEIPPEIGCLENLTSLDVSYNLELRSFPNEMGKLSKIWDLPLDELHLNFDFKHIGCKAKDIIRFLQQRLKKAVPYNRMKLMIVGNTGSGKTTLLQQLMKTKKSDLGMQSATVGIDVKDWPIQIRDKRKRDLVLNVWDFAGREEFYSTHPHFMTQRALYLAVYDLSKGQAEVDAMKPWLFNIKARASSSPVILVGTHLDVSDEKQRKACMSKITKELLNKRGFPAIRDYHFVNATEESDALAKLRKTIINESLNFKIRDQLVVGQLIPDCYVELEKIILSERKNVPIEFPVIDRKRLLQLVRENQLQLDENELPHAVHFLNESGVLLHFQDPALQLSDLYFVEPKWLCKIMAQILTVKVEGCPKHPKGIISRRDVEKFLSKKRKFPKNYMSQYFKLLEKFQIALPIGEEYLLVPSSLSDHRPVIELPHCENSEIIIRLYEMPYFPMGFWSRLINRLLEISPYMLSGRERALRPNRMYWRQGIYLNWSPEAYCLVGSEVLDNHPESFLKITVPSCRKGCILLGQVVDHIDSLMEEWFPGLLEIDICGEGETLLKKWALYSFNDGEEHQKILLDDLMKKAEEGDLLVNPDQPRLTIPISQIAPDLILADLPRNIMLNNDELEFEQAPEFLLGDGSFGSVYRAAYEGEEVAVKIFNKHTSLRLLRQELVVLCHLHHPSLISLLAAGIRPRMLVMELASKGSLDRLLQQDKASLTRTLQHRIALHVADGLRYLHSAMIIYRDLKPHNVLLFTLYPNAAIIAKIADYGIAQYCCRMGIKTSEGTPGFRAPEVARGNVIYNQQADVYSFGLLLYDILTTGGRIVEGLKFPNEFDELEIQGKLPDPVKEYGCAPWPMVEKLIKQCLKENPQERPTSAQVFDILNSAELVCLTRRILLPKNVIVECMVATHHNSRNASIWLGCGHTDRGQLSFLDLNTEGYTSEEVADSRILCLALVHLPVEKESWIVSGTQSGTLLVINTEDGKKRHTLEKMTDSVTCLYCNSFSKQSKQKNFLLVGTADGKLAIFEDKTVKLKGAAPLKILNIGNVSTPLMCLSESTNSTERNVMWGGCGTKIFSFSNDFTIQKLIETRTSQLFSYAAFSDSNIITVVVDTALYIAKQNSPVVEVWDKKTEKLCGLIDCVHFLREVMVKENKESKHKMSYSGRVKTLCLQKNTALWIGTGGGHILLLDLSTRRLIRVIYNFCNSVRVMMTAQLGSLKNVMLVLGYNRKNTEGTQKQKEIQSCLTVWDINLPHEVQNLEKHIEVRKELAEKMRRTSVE
# MEASUREMENT_DESCRIPTION: pS935 LRRK2 Cell Assay (HTRF, phospho-LRRK2 Ser935)
# SETTINGS: LRRK2 Inhibition, Table 8, 2 hours compound incubation
pIC50: −log10 of the molar value.
Criterion: pIC50 meeting or surpassing 7. Met: fulfilled. Not met: not fulfilled.

C[C@@H]1C[C@H](n2c(CC(=O)Nc3cnc(C(F)(F)F)nc3)nc3cnc4ccc(C#N)cc4c32)CCO1: fulfilled

Kindly determine if pIC50 recorded for C[C@@H]1C[C@H](n2c(CC(=O)NCc3cccnc3)nc3cnc4ccc(C#N)cc4c32)CCO1 is above or exactly 7. fulfilled

Kindly determine if pIC50 recorded for C[C@@H]1C[C@H](n2c(CS(=O)(=O)NCC3CC3)nc3cnc4ccc(C#N)cc4c32)CCO1 is above or exactly 7. not fulfilled

Kindly determine if pIC50 recorded for Cc1nccnc1NC(=O)Cc1nc2cnc3ccc(C#N)cc3c2n1[C@@H]1CCO[C@H](C)C1 is above or exactly 7. fulfilled

Kindly determine if pIC50 recorded for C[C@@H]1C[C@H](n2c(C3CC(=O)N(c4cnn(CCO)c4)C3)nc3cnc4ccc(C#N)cc4c32)CCO1 (stereo partly shown) is above or exactly 7. not fulfilled

Kindly determine if pIC50 recorded for C[C@@H]1C[C@H](n2c(CC(=O)Nc3ccccc3)nc3cnc4ccc(C#N)cc4c32)CCO1 is above or exactly 7. fulfilled

###

# SYSTEM: wild type LRRK2 overexpressed in recombinant HEK-293T cells (Homo sapiens, UniProt Q5S007)
# MEASUREMENT_DESCRIPTION: pS935 LRRK2 Cell Assay (HTRF, phospho-LRRK2 Ser935)
# SETTINGS: LRRK2 Inhibition, Table 8, 2 hours compound incubation
Documented log10 IC50 across a set of compounds
Units before log transform: nM; reported quantity: IC50; transform: log10.

// worked examples, log10 IC50 included
C[C@@H]1C[C@H](n2c(CC(=O)N[C@@H]3C[C@H]3c3cccnc3)nc3cnc4ccc(C#N)cc4c32)CCO1 [Compound 365]: 1.37
COc1ncnc(OC)c1NC(=O)Cc1nc2cnc3ccc(C#N)cc3c2n1[C@@H]1CCO[C@H](C)C1: 0.61
C[C@@H]1C[C@H](n2c(CC(=O)NCc3ccn(C)n3)nc3cnc4ccc(C#N)cc4c32)CCO1: 1.41
C[C@@H]1C[C@H](n2c(C3CN(S(C)(=O)=O)C3)nc3cnc4ccc(C#N)cc4c32)CCO1: 2.70
C[C@@H]1C[C@H](n2c(CC3CN(C(=O)OC(C)(C)C)C3)nc3cnc4ccc(C#N)cc4c32)CCO1: 2.40

Record COc1ncncc1NC(=O)Cc1nc2cnc3ccc(C#N)cc3c2n1[C@@H]1CCO[C@H](C)C1 , field log10 IC50: 0.55

###

# SYSTEM: wild type LRRK2 overexpressed in recombinant HEK-293T cells (Homo sapiens, UniProt Q5S007)
# MEASUREMENT_DESCRIPTION: pS935 LRRK2 Cell Assay (HTRF, phospho-LRRK2 Ser935)
# SETTINGS: LRRK2 Inhibition, Table 8, 2 hours compound incubation
EXPERIMENTAL_ENDPOINT: IC50
Write your answer as a measured quantity: the number, then the unit.

C[C@@H]1C[C@H](n2c(CC(=O)Nc3cnccn3)nc3cnc4ccc(Cl)cc4c32)CCO1: 5 nM
C[C@@H]1C[C@H](n2c(CC(=O)NC3(C)CC3)nc3cnc4ccc(C#N)cc4c32)CCO1: 54.7 nM
C[C@@H]1C[C@H](n2c(CC(=O)NCc3cccc(C(F)(F)F)n3)nc3cnc4ccc(C#N)cc4c32)CCO1: 2.74 nM

With wild type LRRK2 overexpressed in recombinant HEK-293T cells (Homo sapiens, UniProt Q5S007) as the test system, C[C@@H]1C[C@H](n2c(CC(=O)Nc3ncc(C4CC4)cn3)nc3cnc4ccc(C#N)cc4c32)CCO1 showed IC50 of 4.11 nM

With wild type LRRK2 overexpressed in recombinant HEK-293T cells (Homo sapiens, UniProt Q5S007) as the test system, Cc1onc(NC(=O)Cc2nc3cnc4ccc(C#N)cc4c3n2[C@@H]2CCO[C@H](C)C2)c1C showed IC50 of 7.78 nM

With wild type LRRK2 overexpressed in recombinant HEK-293T cells (Homo sapiens, UniProt Q5S007) as the test system, C[C@@H]1C[C@H](n2c(CC(=O)Nc3nccnc3Cl)nc3cnc4ccc(C#N)cc4c32)CCO1 showed IC50 of 18.6 nM

With wild type LRRK2 overexpressed in recombinant HEK-293T cells (Homo sapiens, UniProt Q5S007) as the test system, C[C@@H]1C[C@H](n2c(CC(=O)NC[C@@H]3CCCO3)nc3cnc4ccc(C#N)cc4c32)CCO1 showed IC50 of 39.2 nM

###

LRRK2 wild type enzyme (Homo sapiens, UniProt Q5S007): reported pIC50 for various compounds.
Sequence (Q5S007 whole entry): as above
Scale note: pIC50 = -log10(concentration in M).

C[C@@H]1C[C@H](n2c(CC(=O)NC3CCc4cccnc43)nc3cnc4ccc(C#N)cc4c32)CCO1 (stereo partly shown): 9.26
C[C@@H]1C[C@H](n2c(CC(=O)NC3(C)CCOC3)nc3cnc4ccc(Cl)cc4c32)CCO1 (stereo partly shown): 8.90
C[C@@H]1C[C@H](n2c(CC(=O)Nc3cc(C(C)(C)F)no3)nc3cnc4ccc(C#N)cc4c32)CCO1: 9.37
C[C@@H]1C[C@H](n2c(CC(=O)N[C@H]3CCCc4cccnc43)nc3cnc4ccc(C#N)cc4c32)CCO1: 9.22
C[C@@H]1C[C@H](n2c(CC(=O)NCC(F)(F)F)nc3cnc4ccc(C#N)cc4c32)CCO1: 9.25

Now consider the entry below.
With LRRK2 wild type enzyme (Homo sapiens, UniProt Q5S007) as the test system, COc1ccncc1NC(=O)Cc1nc2cnc3ccc(C#N)cc3c2n1[C@@H]1CCO[C@H](C)C1 showed pIC50 of 9.18

###

# SYSTEM: wild type LRRK2 overexpressed in recombinant HEK-293T cells (Homo sapiens)
# MEASUREMENT_DESCRIPTION: pS935 LRRK2 Cell Assay (HTRF, phospho-LRRK2 Ser935)
# SETTINGS: LRRK2 Inhibition, Table 8, 2 hours compound incubation
EXPERIMENTAL_ENDPOINT: IC50
Write your answer as a measured quantity: the number, then the unit.

CC(C(=O)NCC1CC1)c1nc2cnc3ccc(C#N)cc3c2n1[C@@H]1CCO[C@H](C)C1 (stereo partly shown) [Compound 369]: 801 nM
C[C@@H]1C[C@H](n2c(CC(=O)NCC3CCC3)nc3cnc4ccc(C#N)cc4c32)CCO1 [Compound 89]: 34 nM
C[C@@H]1C[C@H](n2c(CC(=O)Nc3ccnn(C)c3=O)nc3cnc4ccc(C#N)cc4c32)CCO1 [Compound 215]: 5.85 nM

Now consider the entry below.
Record Cc1nn(C)c(Cl)c1NC(=O)Cc1nc2cnc3ccc(C#N)cc3c2n1[C@@H]1CCO[C@H](C)C1 [Compound 296] , field IC50: 7.61 nM

###

# SYSTEM: LRRK2 wild type enzyme (Homo sapiens)
# if measured IC50 < 0.4 nM: y  # else: n

C[C@@H]1C[C@H](n2c([C@H]3CCN(C(=O)OC(C)(C)C)C3)nc3cnc4ccc(C#N)cc4c32)CCO1: n
COCCCNC(=O)Cc1nc2cnc3ccc(C#N)cc3c2n1[C@@H]1CCO[C@H](C)C1: y

Strictly below 0.4 nM in IC50? C[C@@H]1C[C@H](n2c([C@@H]3CCN(S(=O)(=O)c4cnn(C)c4)C3)nc3cnc4ccc(C#N)cc4c32)CCO1 n

Strictly below 0.4 nM in IC50? C[C@@H]1C[C@H](n2c(CC(=O)N[C@H]3C[C@@H](OCc4ccccn4)C3)nc3cnc4ccc(C#N)cc4c32)CCO1 n

Strictly below 0.4 nM in IC50? C[C@@H]1C[C@H](n2c(CC(=O)NC3CCCC3)nc3cnc4ccc(C#N)cc4c32)CCO1 n

Strictly below 0.4 nM in IC50? Cc1nn(C)c(C)c1NC(=O)Cc1nc2cnc3ccc(C#N)cc3c2n1[C@@H]1CCO[C@H](C)C1 y

Strictly below 0.4 nM in IC50? COc1nnccc1NC(=O)Cc1nc2cnc3ccc(C#N)cc3c2n1[C@@H]1CCO[C@H](C)C1 y

###

Documented IC50 across a set of molecules
# SYSTEM: LRRK2 wild type enzyme (Homo sapiens, UniProt Q5S007)
Output spec: scalar in nM, unitless text.

// worked examples, IC50 included
C[C@@H]1C[C@H](n2c(CN3CCCS3(=O)=O)nc3cnc4ccc(C#N)cc4c32)CCO1: 11.1
C[C@@H]1C[C@H](n2c(CC(=O)NC3CC34CC4)nc3cnc4ccc(C#N)cc4c32)CCO1 (stereo partly shown): 0.691
C[C@@H]1C[C@H](n2c(CC(=O)N[C@H](C)C3CC3)nc3cnc4ccc(C#N)cc4c32)CCO1: 0.794

Record COCCNC(=O)Cc1nc2cnc3ccc(Cl)cc3c2n1[C@@H]1CCO[C@H](C)C1 , field IC50: 0.369
